Listed compounds paired with reported Percent of dead PBMCs
Test system: PBMCs
Test: Direct cytotoxic effect of compounds on PBMCs (Sytox blue)
Format: cell-based
Conditions: Table S2; alone: compounds 10 μM, LPS 1 μg/mL, IL-2 200 U/mL
Experimental: Additionally, PBMCs and cancer cells alone were treated with desmuramylpeptides to assess any direct cytotoxic effects on these cells. The PBMC cytotoxicity assays utilizing K562 cells were conducted following previously established methods, with some adjustments.[82] […]
Property name: Percent of dead PBMCs

item_smiles=CCOC(=O)[C@@H](CCC(=O)NC12C[C@H]3C[C@@H](C1)C[C@@H](C2)C3)NC(=O)[C@@H](NC(=O)CNC(=O)/C=C/c1ccc(O)c(OC)c1)C(C)C recorded_result="0.99% ± 0.21%"
item_smiles=CCCCCCCCCCCC(=O)Oc1ccc(/C=C/C(=O)NCC(=O)N[C@H](C(=O)N[C@H](CCC(=O)OCC)C(=O)OCC)C(C)C)cc1OC recorded_result="0.96% ± 0.14%"
item_smiles=CCOC(=O)[C@@H](CCC(=O)NCCCNCCCCNCCCN)NC(=O)[C@@H](NC(=O)CNC(=O)/C=C/c1ccc(O)c(OC)c1)C(C)C recorded_result="1.01% ± 0.22%"
item_smiles=CCOC(=O)CC[C@@H](NC(=O)[C@@H](NC(=O)CNC(=O)/C=C/c1ccc(OC(=O)CO[C@H]2CC[C@@]3(C)C(=CC[C@H]4[C@@H]5CC[C@H]([C@H](C)CCCC(C)C)[C@@]5(C)CC[C@@H]43)C2)c(OC)c1)C(C)C)C(=O)OCC recorded_result="1.08% ± 0.10%"
item_smiles=CC/C=C\C/C=C\C/C=C\C/C=C\C/C=C\CCCC(=O)Oc1ccc(/C=C/C(=O)NCC(=O)N[C@H](C(=O)N[C@H](CCC(=O)OCC)C(=O)OCC)C(C)C)cc1OC recorded_result="1.28% ± 0.06%"
item_smiles=CCCC(=O)Oc1ccc(/C=C/C(=O)NCC(=O)N[C@H](C(=O)N[C@H](CCC(=O)OCC)C(=O)OCC)C(C)C)cc1OC recorded_result="1.14% ± 0.23%"

====

tested on: PBMCs; assay: Direct cytotoxic effect of compounds on PBMCs (Sytox blue); format: cell-based; conditions: Table S2; 10 μM + LPS 1 μg/mL
Property name: Percent of dead PBMCs, + LPS

compound="CCCC(=O)Oc1ccc(/C=C/C(=O)NCC(=O)N[C@H](C(=O)N[C@H](CCC(=O)OCC)C(=O)OCC)C(C)C)cc1OC [Compound 3]" tested_system=PBMCs property_name="Percent of dead PBMCs, + LPS" recorded_result="3.34% ± 0.35%"
compound="CC/C=C\\C/C=C\\C/C=C\\C/C=C\\C/C=C\\CCCC(=O)Oc1ccc(/C=C/C(=O)NCC(=O)N[C@H](C(=O)N[C@H](CCC(=O)OCC)C(=O)OCC)C(C)C)cc1OC [Compound 23]" tested_system=PBMCs property_name="Percent of dead PBMCs, + LPS" recorded_result="11.4% ± 2.64%"
compound="CCOC(=O)CC[C@@H](NC(=O)[C@@H](NC(=O)CNC(=O)/C=C/c1ccc(OC(=O)CO[C@H]2CC[C@@]3(C)C(=CC[C@H]4[C@@H]5CC[C@H]([C@H](C)CCCC(C)C)[C@@]5(C)CC[C@@H]43)C2)c(OC)c1)C(C)C)C(=O)OCC [Compound 26]" tested_system=PBMCs property_name="Percent of dead PBMCs, + LPS" recorded_result="9.93% ± 0.49%"
compound="CCOC(=O)[C@@H](CCC(=O)NC12C[C@H]3C[C@@H](C1)C[C@@H](C2)C3)NC(=O)[C@@H](NC(=O)CNC(=O)/C=C/c1ccc(O)c(OC)c1)C(C)C [Compound 28]" tested_system=PBMCs property_name="Percent of dead PBMCs, + LPS" recorded_result="10.44% ± 0.63%"
compound="CCCCCCCCCCCC(=O)Oc1ccc(/C=C/C(=O)NCC(=O)N[C@H](C(=O)N[C@H](CCC(=O)OCC)C(=O)OCC)C(C)C)cc1OC [Compound 2]" tested_system=PBMCs property_name="Percent of dead PBMCs, + LPS" recorded_result="8.07% ± 0.47%"
compound="CCOC(=O)[C@@H](CCC(=O)NCCCNCCCCNCCCN)NC(=O)[C@@H](NC(=O)CNC(=O)/C=C/c1ccc(O)c(OC)c1)C(C)C [Compound 32]" tested_system=PBMCs property_name="Percent of dead PBMCs, + LPS" recorded_result="7.20% ± 0.36%"

Measured values drawn from paper PMC11472310 for this set.
